# tgt: T1, TBK1 CTD V700Q (human, UniProt Q9UHD2 677-729, V700Q)
# T1 sequence: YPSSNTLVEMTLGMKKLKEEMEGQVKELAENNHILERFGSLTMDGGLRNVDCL
# experimentalProtocol: ITC
assayReadout: pKd
When answering, recall that pKd equals minus log10 of the concentration in mol/L, and write that number alone.

For record SSDNMQHAYWELKREMSNLHLVTQVQAELLRKLKTSTAIK (domain or fragment) [NAP1 TBD (residues 215–254)] the listed pKd is 5.22
